The reported numbers originate from PubChem BioAssay (NCI).

Measured TGI, listed per entry for reference.
System: DU-145 prostate
protocol_details: NCI tumour cell line growth inhibition, 48 h
API: value field is a number in µM; no unit string.

- compound: "O=C1C=C(N2CC2)c2ccccc2C1=O"
  TGI / µM: 2.66
- compound: "O=S(=O)(NC(=S)Nc1ccccc1)c1ccc(N2N=C3c4ccccc4CC3C2c2ccc(Cl)cc2)cc1 (stereo unspecified)"
  TGI / µM: 51.4
- compound: "c1ccc(Cn2cc3c(c2)-c2oncc2CC3)cc1"
  TGI / µM: 12.8
- compound: "O=[N+]([O-])c1cccc2nc3ccccc3c(NCCC[N+]3([O-])CCCCC3)c12"
  TGI / µM: 1.9

As a next step, examine the compound that follows.
Lookup: Consider the compound c1ccc(-c2n(Cc3ccc4ccccc4n3)c3ccccc3[n+]2Cc2ccc3ccccc3n2)cc1 tested on DU-145 prostate; state its TGI.
Found: 5.55

###

Measured TGI, listed per entry for reference.
Test system: UO-31 renal
protocol_details: NCI tumour cell line growth inhibition, 48 h

Known TGI results, listed for orientation:
- molecule: "O=C1c2c(c3c4ccccc4n4c3c3c2c2ccccc2n3C/C=C\\C4)C(=O)N1Cc1ccccc1"
  assayed_target: "UO-31 renal"
  TGI: "> 100 µM"
- molecule: "O=c1c2cc(-c3ccccc3)cnc2sn1-c1ccc([N+](=O)[O-])cc1"
  assayed_target: "UO-31 renal"
  TGI: "> 100 µM"
- molecule: "CC(=O)OC1CCC2(C)C(CCC3C2CCC2(C)C(C4=CC(=O)OC4)CCC32)C1 (stereo not given)"
  assayed_target: "UO-31 renal"
  TGI: "49.9 µM"
- molecule: "NC1=CC(=O)C(=O)c2cccnc21"
  assayed_target: "UO-31 renal"
  TGI: "17.7 µM"

Lookup: Return TGI (reported value) for this molecule: OC(COc1ccc(Cl)cc1Cl)CN1CCCC1 (stereo not given)
Found: > 100 µM

Lookup: Return TGI (reported value) for this molecule: COc1cc(/C=C(\NC(=O)c2ccccc2)c2nc3ccc([N+](=O)[O-])cc3[nH]2)cc(OC)c1OC
Found: 89.5 µM

Lookup: Return TGI (reported value) for this molecule: CCOC(=O)c1c(-c2[nH]c(C(=O)OCc3ccccc3)c(C)c2C(=O)OCC)[nH]c(C(=O)OCc2ccccc2)c1C
Found: > 100 µM

###

Test system: CCRF-CEM leukemia
protocol_details: NCI tumour cell line growth inhibition, 48 h; in the data active means GI50 below about 0.43 µM; inactive means the rest
Log the outcome using a class from true = active, false = inactive

- compound: "c1ccc(-c2n(Cc3ccc4ccccc4n3)c3ccccc3[n+]2Cc2ccc3ccccc3n2)cc1"
  class_assignment: "true"
- compound: "c1ccc(Cn2cc3c(c2)-c2oncc2CC3)cc1"
  class_assignment: "true"
- compound: "COC(=O)Nc1nc2c(OC)c(OC)c(OC)cc2[nH]1"
  class_assignment: "false"
- compound: "Nc1c(C(=O)Nc2cccc3ccccc23)sc2nc3c(cc12)CCCC3"
  class_assignment: "false"
- compound: "C[C@@H]1CN(Cc2ccc(/C=C/c3n[nH]c4ccc5nc(-c6cn[nH]c6C(F)(F)F)c6c(c5c34)CCCC6)cc2)C[C@H](C)O1"
  class_assignment: "false"

Lookup: Just curious, what result did O=C(Cc1ccccc1)Nc1nnc(CCSCCc2nnc(NC(=O)Cc3ccccc3)s2)s1 get here?
Found: false

Lookup: Just curious, what result did Cc1sc2nc(-c3ccccn3)c(/C=N/N=C(N)N)n2c1C get here?
Found: false

###

System: SR leukemia
protocol_details: NCI tumour cell line growth inhibition, 48 h; in the data active = GI50 below about 0.43 µM; inactive = the rest
Log the outcome using a class from active, inactive

Would you please look over these solved cases?
- molecule: "O=C(Cc1ccc(/C=C/C(=O)c2ncc[nH]2)cc1)Nc1ccc(Br)cc1"
  class_assignment: "inactive"
- molecule: "O=C1CC(c2ccccc2)Cc2nc3ccc(Cl)cc3cc21 (stereo unspecified)"
  class_assignment: "active"

Lookup: Just curious, what result did O=C1C2C(C(=O)[N]1[Hg][c]1ccccc1)C1(Cl)C(Cl)=C(Cl)C2(Cl)C1(Cl)Cl (stereo unspecified) get here?
Found: active

Lookup: Just curious, what result did CC(C)(C)c1ccc(C(=O)N/N=C/c2ccc(O)cc2O)cc1 get here?
Found: active

Lookup: Just curious, what result did COc1cc(C(=O)/C=C/c2c(-c3ccc(F)cc3)nc3sccn23)cc(OC)c1OC get here?
Found: inactive

Lookup: Just curious, what result did O=C1OCC2=C1C(c1cccc(F)c1)c1cc3c(cc1N2CCO)OCCO3 (stereo unspecified) get here?
Found: active

Lookup: Just curious, what result did Cn1cc(-c2csc(-c3cn(CCN4CCOCC4)c4ccc(F)cc34)n2)c2cccnc21 get here?
Found: inactive

###

Measured TGI, listed per entry for reference.
Tested on: SN12C renal
protocol_details: NCI tumour cell line growth inhibition, 48 h
API: value field is a number in µM; no unit string.

Known TGI results, listed for orientation:
- molecule: "O=C(Cc1ccccc1)Nc1nnc(CCSCCc2nnc(NC(=O)Cc3ccccc3)s2)s1"
  TGI, µM: 44.7
- molecule: "Cc1cc(NC2=NCCO2)c2c(c1C)CCCC2"
  TGI, µM: 66.3
- molecule: "Cc1ccc([N+](=O)[O-])cc1S(=O)(=O)Nc1ccc(C2=NN(c3ccc([N+](=O)[O-])cc3[N+](=O)[O-])C(c3ccccc3O)C2)cc1 (centres undefined)"
  TGI, µM: 54

Lookup: Return TGI (reported value) for this molecule: NC1=CC(=O)C(=O)c2cccnc21
Found: 13.4

###

Measured TGI, listed per entry for reference.
Tested on: MCF7 breast
protocol_details: NCI tumour cell line growth inhibition, 48 h

Known TGI results, listed for orientation:
- compound: "COc1cc(Nc2ncc3c(n2)-c2ccc(Cl)cc2C(c2c(F)cccc2OC)=NC3)ccc1C(=O)O"
  assayed_target: "MCF7 breast"
  TGI: "> 100 µM"
- compound: "CC(/C=N/NC1=NCCCCN1)=N\\NC1=NCCCCN1"
  assayed_target: "MCF7 breast"
  TGI: "> 100 µM"
- compound: "COc1ccc(S(=O)(=O)O)cc1NS(=O)(=O)c1ccc(C)cc1"
  assayed_target: "MCF7 breast"
  TGI: "> 100 µM"
- compound: "O=C(NCCO)c1c(O)c2ccccc2[nH]c1=O"
  assayed_target: "MCF7 breast"
  TGI: "> 100 µM"

Lookup: Return TGI (reported value) for this compound: CCOC(=O)/C=C(/C(=O)OCC)n1c(=O)c(C)cn(C2CC(N=[N+]=[N-])C(CO)O2)c1=O (configuration not stated)
Found: 50.2 µM

Lookup: Return TGI (reported value) for this compound: O=C1Nc2ccccc2NC1C1OC(c2ccccc2)=CC1=O (configuration not stated)
Found: > 100 µM

Lookup: Return TGI (reported value) for this compound: O=c1c2cc(-c3ccccc3)cnc2sn1-c1ccc([N+](=O)[O-])cc1
Found: > 100 µM

Lookup: Return TGI (reported value) for this compound: C/C=C/C=C/C1=NN(c2cccc(S(=O)(=O)O)c2)C2(C1)SCC(=O)N2c1nc2ccccc2s1 (configuration not stated)
Found: > 100 µM

Lookup: Return TGI (reported value) for this compound: O=C1C=C(N2CC2)c2ccccc2C1=O
Found: 3.76 µM

Lookup: Return TGI (reported value) for this compound: O=C1c2ccccc2C(=O)N1C(=S)c1ccccc1
Found: > 100 µM

Lookup: Return TGI (reported value) for this compound: O=C(Nc1ccc2ccccc2c1)Nn1cnnc1
Found: > 100 µM

Lookup: Return TGI (reported value) for this compound: Cc1nc2ccccc2c(=O)n1NC(=O)Cc1ccccc1
Found: > 100 µM

Lookup: Return TGI (reported value) for this compound: CCOC(OCC)C(CCc1ccccc1)c1c(N)nc(N)[nH]c1=O (configuration not stated)
Found: > 100 µM

###

Measured TGI, listed per entry for reference.
Tested on: HCT-116 colon
protocol_details: NCI tumour cell line growth inhibition, 48 h
API: value field is a number in µM; no unit string.

Known TGI results, listed for orientation:
- compound: "Cc1cc2nc3n(c2cc1C)C(c1c(F)cccc1F)SC3 (stereo not given)"
  assayed_target: "HCT-116 colon"
  units_text: "µM"
  TGI: 28.1
- compound: "COc1cc(C)c(C(=O)/C=C/c2cc(OC)c(O)c(OC)c2)cc1O"
  assayed_target: "HCT-116 colon"
  units_text: "µM"
  TGI: 27

As a next step, examine the compound that follows.
Lookup: Return TGI (reported value) for this compound: CN(C)CCCNC(=O)c1cc2c3ccccc3[nH]c2c2ncccc12
Found: 49.2

###

Measured TGI, listed per entry for reference.
System: SF-268 CNS
protocol_details: NCI tumour cell line growth inhibition, 48 h
API: value field is a number in µM; no unit string.

Known TGI results, listed for orientation:
- chemical_string: "N/C(=N\\OC(=O)NC(Cl)=C(Cl)Cl)c1cc(C(F)(F)F)cc(C(F)(F)F)c1"
  endpoint_value: 45.6
- chemical_string: "COc1cc2c(cc1OCCCCC(=O)Nc1ccc(-c3nc4ccccc4s3)cc1)N=C[C@@H]1CCCN1C2=O"
  endpoint_value: 5.66

As a next step, examine the molecule that follows.
Lookup: Consider the molecule C=C1C(=O)[C@]23[C@H](O)[C@H]1CC[C@H]2[C@@]12CO[C@@]3(O)C[C@@H]1C(C)(C)CC[C@@H]2O tested on SF-268 CNS; state its TGI.
Found: 20.9
